Test system: diaphorase
protocol_text: Formation of formazan dyes: only diaphorase, not malate (TABLE 13)
Assay type: biochemical, Clostridium kluyveri
conditions: 3 h, mean of three experiments
readout_label: Absorbance, formation of formazan dyes (Means)
Output spec: single numeric token, no unit.

Enquiry: Using known records, supply Absorbance, formation of formazan dyes (Means) for COc1cc([N+](=O)[O-])ccc1-[n+]1nc(-c2ccc(S(=O)(=O)[O-])cc2S(=O)(=O)[O-])nn1-c1ccc([N+](=O)[O-])cc1.[Na+] [WST-8]
Return: 0.48

Enquiry: Using known records, supply Absorbance, formation of formazan dyes (Means) for O=[N+]([O-])c1ccc(-[n+]2nc(-c3ccc(S(=O)(=O)[O-])cc3S(=O)(=O)[O-])nn2-c2ccc(I)cc2)cc1.[Na+] [WST-1]
Return: 0.69

Enquiry: Using known records, supply Absorbance, formation of formazan dyes (Means) for Cc1nc(-[n+]2nc(-c3cccc(OCC(=O)O)c3)nn2-c2ccc(S(=O)(=O)[O-])cc2)sc1C [MTS]
Return: 0.22

Enquiry: Using known records, supply Absorbance, formation of formazan dyes (Means) for COc1cc(-c2ccc(-[n+]3nc(-c4ccc(C(=O)N(CCS(=O)(=O)[O-])CCS(=O)(=O)[O-])cc4)nn3-c3nc4ccccc4s3)c(OC)c2)ccc1-[n+]1nc(-c2ccc(C(=O)N(CCS(=O)(=O)[O-])CCS(=O)(=O)[O-])cc2)nn1-c1nc2ccccc2s1.[Na+].[Na+] [WST-5]
Return: 0.32

Enquiry: Using known records, supply Absorbance, formation of formazan dyes (Means) for COc1cc([N+](=O)[O-])c(S(=O)(=O)[O-])cc1-n1nc(C(=O)Nc2ccccc2)n[n+]1-c1cc(S(=O)(=O)O)c([N+](=O)[O-])cc1OC [XTT]
Return: 0.54

###

Test system: diaphorase
protocol_text: Formation of formazan dyes: NADH and diaphorase, absence of malate (TABLE 7)
Format: biochemical, Clostridium kluyveri
conditions: NADH and diaphorase, absence of malate; 8 h
Field: Formation of formazan dyes, absorbance, Means 8 h. Provide a value for each of the compounds that follow.
Output spec: single numeric token, no unit.

Enquiry: Using known records, supply Formation of formazan dyes, absorbance, Means 8 h for COc1cc(-c2ccc(-[n+]3nc(-c4ccc(C(=O)N(CCS(=O)(=O)[O-])CCS(=O)(=O)[O-])cc4)nn3-c3nc4ccccc4s3)c(OC)c2)ccc1-[n+]1nc(-c2ccc(C(=O)N(CCS(=O)(=O)[O-])CCS(=O)(=O)[O-])cc2)nn1-c1nc2ccccc2s1.[Na+].[Na+] [WST-5]
Return: 2.77

Enquiry: Using known records, supply Formation of formazan dyes, absorbance, Means 8 h for O=[N+]([O-])c1ccc(-[n+]2nc(-c3ccc(S(=O)(=O)[O-])cc3S(=O)(=O)[O-])nn2-c2ccc(I)cc2)cc1.[Na+] [WST-1]
Return: 3.55

Enquiry: Using known records, supply Formation of formazan dyes, absorbance, Means 8 h for COc1cc([N+](=O)[O-])ccc1-[n+]1nc(-c2ccc(S(=O)(=O)[O-])cc2S(=O)(=O)[O-])nn1-c1ccc([N+](=O)[O-])cc1.[Na+] [WST-8]
Return: 3.66

Enquiry: Using known records, supply Formation of formazan dyes, absorbance, Means 8 h for COc1cc([N+](=O)[O-])c(S(=O)(=O)[O-])cc1-n1nc(C(=O)Nc2ccccc2)n[n+]1-c1cc(S(=O)(=O)O)c([N+](=O)[O-])cc1OC [XTT]
Return: 2.45

Enquiry: Using known records, supply Formation of formazan dyes, absorbance, Means 8 h for Cc1nc(-[n+]2nc(-c3cccc(OCC(=O)O)c3)nn2-c2ccc(S(=O)(=O)[O-])cc2)sc1C [MTS]
Return: 3.28
